# TARGET SYSTEM: Sodium channel protein type 9 subunit alpha (Homo sapiens)
# Sequence (Q15858 whole entry): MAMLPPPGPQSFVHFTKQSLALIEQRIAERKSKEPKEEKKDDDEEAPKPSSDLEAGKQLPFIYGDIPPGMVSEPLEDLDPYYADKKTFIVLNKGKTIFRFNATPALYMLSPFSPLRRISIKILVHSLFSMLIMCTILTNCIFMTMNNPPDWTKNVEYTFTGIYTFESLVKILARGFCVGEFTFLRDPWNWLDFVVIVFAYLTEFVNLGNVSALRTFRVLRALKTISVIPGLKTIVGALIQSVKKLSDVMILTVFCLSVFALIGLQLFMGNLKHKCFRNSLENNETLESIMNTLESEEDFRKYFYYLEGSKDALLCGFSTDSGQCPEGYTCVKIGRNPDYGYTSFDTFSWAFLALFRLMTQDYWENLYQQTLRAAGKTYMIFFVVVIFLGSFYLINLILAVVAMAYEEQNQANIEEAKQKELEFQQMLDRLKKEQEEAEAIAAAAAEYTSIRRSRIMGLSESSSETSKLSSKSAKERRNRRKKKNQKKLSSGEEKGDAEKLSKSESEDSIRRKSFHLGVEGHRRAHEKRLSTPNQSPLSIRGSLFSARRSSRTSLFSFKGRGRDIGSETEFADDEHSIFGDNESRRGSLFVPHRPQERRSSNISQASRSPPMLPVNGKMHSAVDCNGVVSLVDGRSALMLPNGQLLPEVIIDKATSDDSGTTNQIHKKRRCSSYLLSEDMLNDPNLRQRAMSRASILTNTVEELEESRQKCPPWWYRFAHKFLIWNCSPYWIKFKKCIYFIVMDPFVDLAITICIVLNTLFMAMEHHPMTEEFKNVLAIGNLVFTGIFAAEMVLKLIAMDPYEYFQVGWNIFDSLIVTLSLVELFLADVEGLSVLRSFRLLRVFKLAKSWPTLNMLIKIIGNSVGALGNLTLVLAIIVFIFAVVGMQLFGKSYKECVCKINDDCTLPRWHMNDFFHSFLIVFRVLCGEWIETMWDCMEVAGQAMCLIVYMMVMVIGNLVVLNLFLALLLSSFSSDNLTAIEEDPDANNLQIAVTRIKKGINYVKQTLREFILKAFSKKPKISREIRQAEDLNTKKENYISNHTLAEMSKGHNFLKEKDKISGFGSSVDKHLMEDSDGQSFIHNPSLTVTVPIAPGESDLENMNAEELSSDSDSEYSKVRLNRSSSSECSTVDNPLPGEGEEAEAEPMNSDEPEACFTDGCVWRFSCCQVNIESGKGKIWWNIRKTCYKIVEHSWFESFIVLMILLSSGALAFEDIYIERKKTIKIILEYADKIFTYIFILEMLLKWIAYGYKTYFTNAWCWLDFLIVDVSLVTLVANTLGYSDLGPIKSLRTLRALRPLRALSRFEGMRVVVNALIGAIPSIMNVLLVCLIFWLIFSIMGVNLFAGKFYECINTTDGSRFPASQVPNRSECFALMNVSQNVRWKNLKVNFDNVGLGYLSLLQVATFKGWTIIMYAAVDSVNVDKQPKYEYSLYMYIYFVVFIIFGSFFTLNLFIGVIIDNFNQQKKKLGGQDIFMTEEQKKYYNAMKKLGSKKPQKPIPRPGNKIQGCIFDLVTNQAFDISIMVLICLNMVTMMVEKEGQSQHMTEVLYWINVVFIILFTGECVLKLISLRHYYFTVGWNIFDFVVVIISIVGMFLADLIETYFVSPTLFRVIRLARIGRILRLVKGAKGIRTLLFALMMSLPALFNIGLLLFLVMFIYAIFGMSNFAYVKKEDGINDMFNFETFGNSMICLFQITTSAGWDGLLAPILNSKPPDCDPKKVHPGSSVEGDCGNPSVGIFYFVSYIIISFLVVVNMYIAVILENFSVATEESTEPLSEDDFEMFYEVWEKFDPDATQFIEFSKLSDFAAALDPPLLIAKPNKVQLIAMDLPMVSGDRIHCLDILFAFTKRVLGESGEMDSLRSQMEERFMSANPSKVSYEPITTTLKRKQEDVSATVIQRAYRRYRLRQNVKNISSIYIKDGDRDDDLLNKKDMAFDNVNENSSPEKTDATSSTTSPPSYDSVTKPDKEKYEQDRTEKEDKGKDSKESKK
# TEST: cell-based
pIC50: −log10 of the molar value.
MEASURE: pIC50

Past entries and their recorded results:
• CC1CN(c2ccc(Oc3ccc(S(=O)(=O)Nc4nccs4)cc3C#N)cc2)C(=O)N1 (stereo not given) = 6.00
• N#Cc1cc(S(=O)(=O)Nc2nccs2)ccc1Oc1ccc(-n2cc(Cl)cn2)c(C(=O)O)c1 = 6.00
• N#Cc1cc(S(=O)(=O)Nc2ncns2)ccc1Oc1nccnc1-c1ccccc1 = 5.00

P. N#Cc1cc(S(=O)(=O)Nc2nccs2)ccc1Oc1ccc(-n2cc(F)cn2)cc1
Q. Cc1cc(Oc2ccc(S(=O)(=O)Nc3ncc(Cl)s3)cc2C#N)n(C2CCCCC2)n1
Query: Of P and Q , which carries the smaller reported pIC50 figure? In your reply, give the label of the chosen option.
Response: Q
(Q: 5.00, P: 6.00)

A. N#Cc1cc(S(=O)(=O)Nc2ncco2)ccc1Oc1ccccc1-c1ccccc1
B. CCN1CC(n2nccc2-c2cc(C(F)(F)F)ccc2Oc2ccc(S(=O)(=O)Nc3cscn3)cc2C#N)C1
C. N#Cc1cc(S(=O)(=O)Nc2nccs2)ccc1Oc1ccc(-c2cc(C(F)(F)F)ccn2)cc1
D. N#Cc1cc(S(=O)(=O)Nc2nccs2)ccc1Oc1ccc(-c2ccc(C(F)(F)F)cn2)cc1
Query: List items by pIC50 in falling order. List the labels according to the requested ordering.
Response: B, C, D, A
(B: 7.66, C: 6.43, D: 5.48, A: 5.00)
